- Tested on: CEM cells HIV-1 protection, formazan growth assay
- run.description: NCI AIDS Antiviral Assay
- condition.context: measured here: growth of uninfected CEM cells
- Procedure: The ability of compounds to protect human CEM cells from HIV-1 infection is measured as a screen for new compounds capable of inhibiting the HIV virus. Five concentrations of drug were tested on uninfected and infected cells and cell growth was measured using a soluble formazan assay. […] Compounds that provided at least 50% protection were retested. Compounds that provided at least 50% protection on retest were listed as moderately active. […]
observed.property: IC50 (µM)
// note: answer is a bare numeric in µM

CCCCc1cc(=O)oc2c3c(c4c(c12)OC(C)(C)C=C4)O[C@H](C)[C@@H](C)[C@H]3O = 15.5

[in] Can you look up the measured IC50 of CCN(CC)CCN(CC)C(=O)COc1cc2c(O)c3c(O)c(C)c4c(c13)C(=O)C(C)(O/C=C/C(OC)C(C)C(OC(C)=O)C(C)C(O)C(C)C(O)C(C)/C=C/C=C(\C)C(=O)N2)O4 (stereo not drawn) for me?
[out] 35.5

[in] Would you kindly repeat that for CCOc1ccc(N=c2ssc(SC)c2-c2ccccc2)cc1 ?
[out] 61.7

[in] Another compound: CCOC(=O)c1cc(Cl)cc2c(=O)c3c(O)c4[nH]c5c(C(=O)OCC)cc(Cl)cc5c(=O)c4c(O)c3[nH]c12
[out] 4.9

Hello, the source for this data is PubChem BioAssay AID179, in case you need it.
